Readings of HC50 for the listed compounds
Tested on: human erythrocytes
Assay: Hemolysis assay, HC50 determination
Format: cell-based
Conditions: Table 1; lysis of human erythrocytes
Procedure: Hemolysis assay (human erythrocytes)–HC50 determination. These were performed as described previously.
measuredParameter: HC50 (µg/mL)

* CC(C)CCOc1ccccc1-n1nncc1COCC(=O)N[C@H](CCCCN)C(=O)N[C@H](CCCNC(=N)N)Cn1cc(CC2CCCCC2)nn1 | 17.1
* CC(C)CCOc1ccccc1-n1nncc1COCC(=O)N[C@H](CCCCN)C(=O)N[C@H](CCCNC(=N)N)Cn1cc(Cc2ccccc2)nn1 | 19.8
* CC(C)CCc1cnnn1-c1ccccc1OCC(=O)N[C@H](CCCCN)C(=O)N[C@H](CCCNC(=N)N)Cn1cc(CC2CCCCC2)nn1 | 32

====

Reported MIC for target or system C. albicans ATCC 90028, by entry.
measuredParameter: MIC

• CC(C)CCc1cnnn1-c1ccccc1OCC(=O)N[C@H](CCCNC(=N)N)Cn1cc(CC2CCCCC2)nn1.Cl = > 32 µg/mL
• CC(C)CCOc1ccccc1-n1nncc1COCC(=O)N[C@H](CCCCN)C(=O)N[C@H](CCCNC(=N)N)Cn1cc(C2CCCCC2)nn1 = > 32 µg/mL
• CC(C)CCc1cn(-c2ccccc2OCC(=O)N[C@H](CCCNC(=N)N)Cn2cc(-c3ccc(F)cc3)nn2)nn1.Cl = > 32 µg/mL
• CC(C)CCc1cnnn1-c1ccccc1OCC(=O)N[C@H](CCCNC(=N)N)Cn1cc(Cc2ccccc2)nn1.Cl = > 32 µg/mL
• CC(C)CCc1cnnn1-c1ccccc1OCC(=O)N[C@H](CCCCN)C(=O)N[C@H](CCCNC(=N)N)Cn1cc(Cc2ccccc2)nn1.Cl.Cl = 16 µg/mL
• CC(C)CCc1cn(-c2ccccc2OCC(=O)N[C@H](CCCCN)C(=O)N[C@H](CCCNC(=N)N)Cn2cc(Cc3ccccc3)nn2)nn1 = 16 µg/mL

====

assay: Cytotoxicity (CC50) assay by CO-ADD; format: cell-based, human; conditions: human, HEK293 cells (ATCC CRL-1573); Table 1; cytotoxicity on HEK293 cells, tested at ≤32 µg/mL
measuredParameter: CC50

* CC(C)CCc1cnnn1-c1ccccc1OCC(=O)N[C@H](CCCNC(=N)N)Cn1cc(Cc2ccccc2)nn1.Cl [Compound 16] | > 32 µg/mL
* CC/C(=C(\c1ccccc1)c1ccc(OCCN(C)C)cc1)c1ccccc1 [tamoxifen, reference compound] | 13.1 µg/mL
* CC(C)CCc1cnnn1-c1ccccc1OCC(=O)N[C@H](CCCCN)C(=O)N[C@H](CCCNC(=N)N)Cn1cc(Cc2ccccc2)nn1.Cl.Cl [Compound 39] | > 32 µg/mL
* CC(C)CCOc1ccccc1-n1nncc1COCC(=O)N[C@H](CCCCN)C(=O)N[C@H](CCCNC(=N)N)Cn1cc(Cc2ccccc2)nn1 [Compound 50] | > 32 µg/mL
* CC(C)CCc1cn(-c2ccccc2OCC(=O)N[C@H](CCCCN)C(=O)N[C@H](CCCNC(=N)N)Cn2cc(Cc3ccccc3)nn2)nn1 [Compound 36] | > 32 µg/mL
* CC(C)CCc1cn(-c2c(OCC(=O)N[C@H](CCCCN)C(=O)N[C@H](CCCNC(=N)N)Cn3cc(CC4CCCCC4)nn3)ccc3ccccc23)nn1 [Compound 41] | 16 µg/mL
* CC(C)CCc1cnnn1-c1c(OCC(=O)N[C@H](CCCCN)C(=O)N[C@H](CCCNC(=N)N)Cn2cc(C3CCCCC3)nn2)ccc2ccccc12.Cl.Cl [Compound 43] | > 32 µg/mL
* CC(C)CCc1cnnn1-c1c(OCC(=O)N[C@H](CCCCN)C(=O)N[C@H](CCCNC(=N)N)Cn2cc(CC3CCCCC3)nn2)ccc2ccccc12 [Compound 44] | > 32 µg/mL
* CC(C)CCc1cnnn1-c1ccccc1OCC(=O)N[C@H](CCCNC(=N)N)Cn1cc(CC2CCCCC2)nn1.Cl [Compound 15] | > 32 µg/mL
* CC(C)CCc1cnnn1-c1c(OCC(=O)N[C@H](CCCCN)C(=O)N[C@H](CCCNC(=N)N)Cn2cc(Cc3ccccc3)nn2)ccc2ccccc12.Cl.Cl [Compound 45] | > 32 µg/mL
* CC(C)CCOc1ccccc1-n1nncc1COCC(=O)N[C@H](CCCCN)C(=O)N[C@H](CCCNC(=N)N)Cn1cc(C2CCCCC2)nn1 [Compound 48] | > 32 µg/mL
* CC(C)CCc1cn(-c2c(OCC(=O)N[C@H](CCCNC(=N)N)Cn3cc(CC4CCCCC4)nn3)ccc3ccccc23)nn1.Cl [Compound 22] | > 32 µg/mL
* CC(C)CCc1cnnn1-c1c(OCC(=O)N[C@H](CCCNC(=N)N)Cn2cc(Cc3ccccc3)nn2)ccc2ccccc12.Cl [Compound 26] | 23.5 µg/mL
